System: CCRF-CEM
Assay: Antitumor activity against human CCRF-CEM cells
Type: functional
quantity-measured: log10(GI50) (log10 of the value in µM)

COc1ccc2c(c1)[nH]c(=O)c1c3ccccc3cn21; -1.52
O=c1[nH]c2cc(Cl)c(Cl)cc2n2cc3ccccc3c12; 1.34
Cc1cc2[nH]c(=O)c3c4ccccc4cn3c2cc1C; 1.00
Cc1cccc2c1[nH]c(=O)c1c3ccccc3cn21; 0.08
O=c1[nH]c2ccccc2n2cc3ccccc3c12; 0.77

====

Recorded LC50 (50% net cell kill) for the following compounds
Test system: NCI-H23
Assay: Antitumor activity against human NCI-H23 cells
Assay type: functional
quantity-measured: LC50 (50% net cell kill) (µM)

O=c1[nH]c2cc(Cl)c(Cl)cc2n2cc3ccccc3c12; 56.2
Cc1cc2[nH]c(=O)c3c4ccccc4cn3c2cc1C; 69.2
Cc1cccc2c1[nH]c(=O)c1c3ccccc3cn21; 87.1

====

Tested on: LOX IMVI
Assay: Antitumor activity against human LOXIMVI cells
Assay type: functional
quantity-measured: LC50 (50% net cell kill) (µM)

Cc1cccc2c1[nH]c(=O)c1c3ccccc3cn21; 42.7
Cc1cc2[nH]c(=O)c3c4ccccc4cn3c2cc1C; 7.94
O=c1[nH]c2ccccc2n2cc3ccccc3c12; 85.1
O=c1[nH]c2cc(Cl)c(Cl)cc2n2cc3ccccc3c12; 56.2
COc1ccc2c(c1)[nH]c(=O)c1c3ccccc3cn21; 4.47

====

Tested on: HOP-92
Assay: Antitumor activity against human HOP92 cells
Format: functional
Listed here are compounds together with their documented LC50.
quantity-measured: LC50 (µM)

COc1ccc2c(c1)[nH]c(=O)c1c3ccccc3cn21; 39.8
O=c1[nH]c2ccccc2n2cc3ccccc3c12; 51.3
O=c1[nH]c2cc(Cl)c(Cl)cc2n2cc3ccccc3c12; 66.1
Cc1cc2[nH]c(=O)c3c4ccccc4cn3c2cc1C; 58.9

====

System: IGROV-1
Test: Antitumor activity against human IGROV1 cells
Assay type: functional
Settings: read-out: pTGI (converted)
quantity-measured: TGI (µM)

COc1ccc2c(c1)[nH]c(=O)c1c3ccccc3cn21; 2.29
Cc1cc2[nH]c(=O)c3c4ccccc4cn3c2cc1C; 26.9
O=c1[nH]c2ccccc2n2cc3ccccc3c12; 25.7
O=c1[nH]c2cc(Cl)c(Cl)cc2n2cc3ccccc3c12; 30.9

====

Tested on: SR
Assay: Antitumor activity against human SR cells
Type: functional
# LC50 listing for each entry below
quantity-measured: LC50 (µM)

COc1ccc2c(c1)[nH]c(=O)c1c3ccccc3cn21; 75.9
Cc1cccc2c1[nH]c(=O)c1c3ccccc3cn21; 12.6
Cc1cc2[nH]c(=O)c3c4ccccc4cn3c2cc1C; 49
O=c1[nH]c2cc(Cl)c(Cl)cc2n2cc3ccccc3c12; 87.1

====

Tested on: SF-539
Assay: Antitumor activity against human SF539 cells
Type: functional
# reported LC50 (50% net cell kill); entries follow
quantity-measured: LC50 (50% net cell kill) (µM)

Cc1cccc2c1[nH]c(=O)c1c3ccccc3cn21; 40.7
O=c1[nH]c2ccccc2n2cc3ccccc3c12; 75.9
COc1ccc2c(c1)[nH]c(=O)c1c3ccccc3cn21; 2.75
O=c1[nH]c2cc(Cl)c(Cl)cc2n2cc3ccccc3c12; 81.3
Cc1cc2[nH]c(=O)c3c4ccccc4cn3c2cc1C; 64.6

====

Each item that follows carries a reported GI50.
System: COLO 205
Assay: Antitumor activity against human COLO205 cells
Format: functional
quantity-measured: GI50 (µM)

O=c1[nH]c2cc(Cl)c(Cl)cc2n2cc3ccccc3c12; 29.5
COc1ccc2c(c1)[nH]c(=O)c1c3ccccc3cn21; 0.0407
Cc1cccc2c1[nH]c(=O)c1c3ccccc3cn21; 7.41
O=c1[nH]c2ccccc2n2cc3ccccc3c12; 4.57
Cc1cc2[nH]c(=O)c3c4ccccc4cn3c2cc1C; 15.1

====

The entries below come with measured LC50 values attached.
Tested on: SNB-75
Test: Antitumor activity against human SNB75 cells
Format: functional
Conditions: Homo sapiens, SNB-75
quantity-measured: LC50

COc1ccc2c(c1)[nH]c(=O)c1c3ccccc3cn21; > 100 µM
Cc1cc2[nH]c(=O)c3c4ccccc4cn3c2cc1C; 58.9 µM
Cc1cccc2c1[nH]c(=O)c1c3ccccc3cn21; > 100 µM
O=c1[nH]c2ccccc2n2cc3ccccc3c12; > 100 µM
O=c1[nH]c2cc(Cl)c(Cl)cc2n2cc3ccccc3c12; > 100 µM

====

Assay: Antitumor activity against human NCI-H322 cells
Type: functional
Conditions: read-out: pTGI (converted)
quantity-measured: TGI (µM)

Cc1cccc2c1[nH]c(=O)c1c3ccccc3cn21; 45.7
O=c1[nH]c2ccccc2n2cc3ccccc3c12; 46.8
O=c1[nH]c2cc(Cl)c(Cl)cc2n2cc3ccccc3c12; 26.9
COc1ccc2c(c1)[nH]c(=O)c1c3ccccc3cn21; 2.57
Cc1cc2[nH]c(=O)c3c4ccccc4cn3c2cc1C; 30.2

====

Reported GI50 values are given for each entry in this list.
Tested on: IGROV-1
Assay: Antitumor activity against human IGROV1 cells
Type: functional
quantity-measured: GI50 (µM)

Cc1cc2[nH]c(=O)c3c4ccccc4cn3c2cc1C; 12.3
O=c1[nH]c2cc(Cl)c(Cl)cc2n2cc3ccccc3c12; 17.4
O=c1[nH]c2ccccc2n2cc3ccccc3c12; 10.2
Cc1cccc2c1[nH]c(=O)c1c3ccccc3cn21; 3.72
COc1ccc2c(c1)[nH]c(=O)c1c3ccccc3cn21; 0.0741

====

# GI50 per record follows
System: SK-MEL-5
Experiment: Antitumor activity against human SKMEL5 cells
Assay type: functional
quantity-measured: GI50 (µM)

COc1ccc2c(c1)[nH]c(=O)c1c3ccccc3cn21; 0.0282
O=c1[nH]c2ccccc2n2cc3ccccc3c12; 1.91
Cc1cc2[nH]c(=O)c3c4ccccc4cn3c2cc1C; 13.5
Cc1cccc2c1[nH]c(=O)c1c3ccccc3cn21; 11.7
O=c1[nH]c2cc(Cl)c(Cl)cc2n2cc3ccccc3c12; 20

====

Measured GI50 of individual entries
Assay: Antitumor activity against human NCI-H322 cells
Assay type: functional
quantity-measured: GI50 (µM)

Cc1cccc2c1[nH]c(=O)c1c3ccccc3cn21; 13.5
O=c1[nH]c2cc(Cl)c(Cl)cc2n2cc3ccccc3c12; 13.5
Cc1cc2[nH]c(=O)c3c4ccccc4cn3c2cc1C; 16.6
O=c1[nH]c2ccccc2n2cc3ccccc3c12; 24
COc1ccc2c(c1)[nH]c(=O)c1c3ccccc3cn21; 0.0832

====

Test system: NCI-H460
Assay: Cell viability against human NCI-H460 cells at 10 uM
Type: functional
quantity-measured: Activity (%)

Cc1cccc2c1[nH]c(=O)c1c3ccccc3cn21; 2
O=c1[nH]c2cc(Cl)c(Cl)cc2n2cc3ccccc3c12; 0
Cc1cc2[nH]c(=O)c3c4ccccc4cn3c2cc1C; 0
N#Cc1c2ccccc2c2cnc3cc(Cl)c(Cl)cc3n12; 104
O=c1[nH]c2ccccc2n2cc3ccccc3c12; 0
N#Cc1c2ccccc2c2cnc3ccccc3n12; 91
COc1ccc2c(c1)[nH]c(=O)c1c3ccccc3cn21; 0
Cc1cc2ncc3c4ccccc4c(C#N)n3c2cc1C; 78

====

Test system: SR
Assay: Antitumor activity against human SR cells
Assay type: functional
quantity-measured: GI50 (nM)

COc1ccc2c(c1)[nH]c(=O)c1c3ccccc3cn21; 10
O=c1[nH]c2cc(Cl)c(Cl)cc2n2cc3ccccc3c12; 17400
O=c1[nH]c2ccccc2n2cc3ccccc3c12; 2880
Cc1cc2[nH]c(=O)c3c4ccccc4cn3c2cc1C; 2570
Cc1cccc2c1[nH]c(=O)c1c3ccccc3cn21; 1550

====

System: A549
Assay: Antitumor activity against human A549 cells
Format: functional
quantity-measured: GI50

Cc1cc2[nH]c(=O)c3c4ccccc4cn3c2cc1C; 14.8 µM
O=c1[nH]c2cc(Cl)c(Cl)cc2n2cc3ccccc3c12; 19.1 µM
O=c1[nH]c2ccccc2n2cc3ccccc3c12; 5.89 µM
